Target: Short transient receptor potential channel 4 (Mus musculus) (UniProt Q9QUQ5)
Sequence (Q9QUQ5 whole entry, looked up): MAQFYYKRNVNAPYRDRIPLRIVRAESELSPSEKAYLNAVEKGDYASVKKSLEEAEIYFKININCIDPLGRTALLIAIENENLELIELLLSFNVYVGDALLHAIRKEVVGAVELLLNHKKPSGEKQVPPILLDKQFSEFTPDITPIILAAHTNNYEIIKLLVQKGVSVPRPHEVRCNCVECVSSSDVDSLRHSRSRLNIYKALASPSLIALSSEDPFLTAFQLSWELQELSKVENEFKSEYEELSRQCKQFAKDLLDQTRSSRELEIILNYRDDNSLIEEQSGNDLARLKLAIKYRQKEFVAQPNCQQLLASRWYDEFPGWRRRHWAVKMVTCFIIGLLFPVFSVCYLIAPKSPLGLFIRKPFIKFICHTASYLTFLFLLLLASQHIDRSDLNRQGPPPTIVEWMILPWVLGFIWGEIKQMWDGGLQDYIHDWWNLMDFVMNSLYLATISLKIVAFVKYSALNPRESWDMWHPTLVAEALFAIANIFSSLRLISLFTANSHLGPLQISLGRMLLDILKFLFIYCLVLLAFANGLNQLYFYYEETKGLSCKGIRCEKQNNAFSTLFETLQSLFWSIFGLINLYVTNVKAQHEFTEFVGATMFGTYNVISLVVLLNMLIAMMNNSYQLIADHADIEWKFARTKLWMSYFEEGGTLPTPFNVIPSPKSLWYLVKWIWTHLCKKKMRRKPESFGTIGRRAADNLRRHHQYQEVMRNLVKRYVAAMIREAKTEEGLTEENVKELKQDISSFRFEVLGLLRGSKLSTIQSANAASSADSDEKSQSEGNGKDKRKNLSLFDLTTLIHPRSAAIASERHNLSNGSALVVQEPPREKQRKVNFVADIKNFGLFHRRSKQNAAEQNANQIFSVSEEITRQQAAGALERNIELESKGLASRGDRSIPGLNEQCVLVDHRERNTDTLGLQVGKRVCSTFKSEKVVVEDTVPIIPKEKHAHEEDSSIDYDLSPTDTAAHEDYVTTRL
Assay: blockers of DAMGO-evoked TRPC4 calcium flux – cell-based, Fluo4, HEK293 TRPC4beta/mu-opioid, confirmation (AID 2636)
Conditions: at 10 µM; active compounds read high
Calls of active or inactive are those of the source.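 How the source made its calls: active means calcium signal cut by more than 3 SD below the full-agonist control yet still positive, in both repeats and the earlier primary screen; inactive means the rest.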
Quantity Measured: inhibition

Compound | System | Reading
CC(C)c1ccc(OCc2ccc(C(=O)N3CCCC3)o2)cc1 | Short transient receptor potential channel 4 (Mus musculus) (UniProt Q9QUQ5) | inactive
CN(C)S(=O)(=O)c1ccc(Cl)c(C(=O)NC2CCN(Cc3ccccc3)C2)c1 (centres undefined) | Short transient receptor potential channel 4 (Mus musculus) (UniProt Q9QUQ5) | inactive
CCCC(=O)N/C(N)=N/c1nc(C)c2ccccc2n1 | Short transient receptor potential channel 4 (Mus musculus) (UniProt Q9QUQ5) | inactive
O=C(c1cc2cc(Br)cc(Br)c2oc1=O)N1CCCC1 | Short transient receptor potential channel 4 (Mus musculus) (UniProt Q9QUQ5) | inactive
COc1ccc(C(=O)OCCc2sc[n+](CC(=O)c3ccccc3)c2C)cc1 | Short transient receptor potential channel 4 (Mus musculus) (UniProt Q9QUQ5) | inactive
O=c1c(Cc2ccc(F)cc2)c(O)ccn1CCc1cnc[nH]1 | Short transient receptor potential channel 4 (Mus musculus) (UniProt Q9QUQ5) | inactive
OC1(c2ccc(Cl)cc2)CN(c2ccccc2)C2=[N+]1CCS2 (centres undefined) | Short transient receptor potential channel 4 (Mus musculus) (UniProt Q9QUQ5) | inactive
CCN(CC)CCNc1ccc(Cl)cc1[N+](=O)[O-] | Short transient receptor potential channel 4 (Mus musculus) (UniProt Q9QUQ5) | inactive
CSCCNC(=O)c1ccc(OC2CCN(CCc3ccccc3)CC2)cc1 | Short transient receptor potential channel 4 (Mus musculus) (UniProt Q9QUQ5) | inactive
COc1cc(CNCCCN2CCOCC2)cc(Br)c1OCc1ccc(Cl)cc1 | Short transient receptor potential channel 4 (Mus musculus) (UniProt Q9QUQ5) | inactive
CCOC(=O)COc1cc(-n2c(=S)[nH]c3ccccc3c2=O)c(Cl)cc1Cl | Short transient receptor potential channel 4 (Mus musculus) (UniProt Q9QUQ5) | inactive
COc1ccc(N2CCN(C3CCCCC3NS(=O)(=O)c3ccc(Cl)cc3)CC2)cc1 (centres undefined) | Short transient receptor potential channel 4 (Mus musculus) (UniProt Q9QUQ5) | inactive
CCSc1ccccc1C(=O)NCCc1ccccc1 | Short transient receptor potential channel 4 (Mus musculus) (UniProt Q9QUQ5) | inactive
Cc1ccc(-c2nn(-c3cccc(F)c3)cc2CNCc2cccnc2)o1 | Short transient receptor potential channel 4 (Mus musculus) (UniProt Q9QUQ5) | inactive
CCN1CCN(c2c(Cl)cccc2NC(=O)c2cc3ccccc3o2)CC1 | Short transient receptor potential channel 4 (Mus musculus) (UniProt Q9QUQ5) | inactive
CCC(C)[C@H](Nc1nc(-c2ccccc2)nc2c1oc1ccccc12)C(=O)O (some centres undefined) | Short transient receptor potential channel 4 (Mus musculus) (UniProt Q9QUQ5) | 89% (active)
Cc1cc(N2CCCCC2)nc2ccccc12 | Short transient receptor potential channel 4 (Mus musculus) (UniProt Q9QUQ5) | 83% (active)
COc1ccc(C(CNC(=O)Cc2cccs2)N(C)C)cc1 (centres undefined) | Short transient receptor potential channel 4 (Mus musculus) (UniProt Q9QUQ5) | inactive
NS(=O)(=O)c1ccc(Nc2nc(-c3ccc(O)cc3O)cs2)cc1 | Short transient receptor potential channel 4 (Mus musculus) (UniProt Q9QUQ5) | 98% (active)
COC(=O)C1=C(C)N(Cc2ccccc2)C(=S)N[C@H]1c1ccccc1 | Short transient receptor potential channel 4 (Mus musculus) (UniProt Q9QUQ5) | 73% (active)
COc1ccc(Cl)c2sc(N(CCN(C)C)C(=O)CCS(=O)(=O)c3ccc(C)cc3)nc12 | Short transient receptor potential channel 4 (Mus musculus) (UniProt Q9QUQ5) | inactive
CC1CCCN(C2=C(NS(=O)(=O)c3ccc(Br)cc3)C(=O)c3ccccc3C2=O)C1 (centres undefined) | Short transient receptor potential channel 4 (Mus musculus) (UniProt Q9QUQ5) | inactive
CN(C)CCCN(Cc1cc2cc3c(cc2[nH]c1=O)OCO3)C(=S)NCc1ccco1 | Short transient receptor potential channel 4 (Mus musculus) (UniProt Q9QUQ5) | 93% (active)
OCC1(CCc2ccccc2)CCN(Cc2ccc3nsnc3c2)CC1 | Short transient receptor potential channel 4 (Mus musculus) (UniProt Q9QUQ5) | 83% (active)
O=C(NCCN1CCOCC1)c1cc2sccc2n1Cc1ccc(F)cc1 | Short transient receptor potential channel 4 (Mus musculus) (UniProt Q9QUQ5) | 74% (active)
CCOC(=O)c1c(C)n(C)c2ccc(OCC(O)CNCCc3ccccc3)cc12 (centres undefined) | Short transient receptor potential channel 4 (Mus musculus) (UniProt Q9QUQ5) | inactive
C=C(C)COc1ccc(-c2[nH]ncc2Oc2ccc(OC)cc2)c(O)c1 | Short transient receptor potential channel 4 (Mus musculus) (UniProt Q9QUQ5) | inactive
COc1ccc(C)cc1N(C(=O)c1snc(C(N)=O)c1N)C(C(=O)NC1CCCCC1)c1ccc(C)o1 (centres undefined) | Short transient receptor potential channel 4 (Mus musculus) (UniProt Q9QUQ5) | 92% (active)
CCN1CCN(c2nc(C)c3c(n2)CC(C)CC3=O)CC1 (centres undefined) | Short transient receptor potential channel 4 (Mus musculus) (UniProt Q9QUQ5) | inactive
CC(C)CN(C(=O)C1CC1)c1c(N)n(Cc2ccccc2)c(=O)[nH]c1=O | Short transient receptor potential channel 4 (Mus musculus) (UniProt Q9QUQ5) | inactive
COc1ccc(C)cc1N(C(=O)c1snc(C(N)=O)c1N)C(C(=O)NC1CCCC1)c1ccc(F)cc1 (centres undefined) | Short transient receptor potential channel 4 (Mus musculus) (UniProt Q9QUQ5) | 91% (active)
O=C(Nc1ccccc1N1CCN(C(=O)c2ccccc2)CC1)c1ccc(Br)o1 | Short transient receptor potential channel 4 (Mus musculus) (UniProt Q9QUQ5) | 82% (active)
CC(=O)OCCCN1C(=O)c2cccc3cc(Br)cc(c23)C1=O | Short transient receptor potential channel 4 (Mus musculus) (UniProt Q9QUQ5) | 96% (active)
CC1Cc2ccccc2N1C(=O)CSc1nc2c(c(=O)n(C)c(=O)n2C)n1Cc1ccc(F)cc1 (centres undefined) | Short transient receptor potential channel 4 (Mus musculus) (UniProt Q9QUQ5) | inactive
O=[N+]([O-])c1cccc(-c2nnc(C3CC3)o2)c1 | Short transient receptor potential channel 4 (Mus musculus) (UniProt Q9QUQ5) | 68% (active)
COc1cccc(C(=O)C2CCCN(Cc3cccn3-c3ccccn3)C2)c1 (centres undefined) | Short transient receptor potential channel 4 (Mus musculus) (UniProt Q9QUQ5) | 44% (active)
Cc1ccc(C)c(NC(=S)NCC(c2ccccc2)N(C)C)c1 (centres undefined) | Short transient receptor potential channel 4 (Mus musculus) (UniProt Q9QUQ5) | inactive
COc1ccc(C2C(C(C)=O)=C(O)C(=O)N2c2ccc(Br)cc2)cc1 (centres undefined) | Short transient receptor potential channel 4 (Mus musculus) (UniProt Q9QUQ5) | 84% (active)
Cc1cc(C)c2nc(C)cc(N/N=C/c3ccc(O)cc3)c2c1 | Short transient receptor potential channel 4 (Mus musculus) (UniProt Q9QUQ5) | 91% (active)
Cc1cc(NC(=O)C(C)SCC(=O)N(Cc2ccccc2)c2ccccc2)no1 (centres undefined) | Short transient receptor potential channel 4 (Mus musculus) (UniProt Q9QUQ5) | 90% (active)
COc1cc2nc(=S)n3[nH]c(CCn4nc(C)cc4C)nc3c2cc1OC | Short transient receptor potential channel 4 (Mus musculus) (UniProt Q9QUQ5) | inactive
O=C(c1cccc(C(F)(F)F)c1)C1CCCN(Cc2cccn2-c2ccccn2)C1 (centres undefined) | Short transient receptor potential channel 4 (Mus musculus) (UniProt Q9QUQ5) | 72% (active)
Cc1c(CN2CCC(n3nccc3NC(=O)CCc3ccccc3)CC2)cnn1C | Short transient receptor potential channel 4 (Mus musculus) (UniProt Q9QUQ5) | 94% (active)
CCN(C(=O)c1cc2c(s1)-c1ccccc1OC2)c1cc(OC)ccc1OC | Short transient receptor potential channel 4 (Mus musculus) (UniProt Q9QUQ5) | inactive

====

System: TRPC4 (mouse), co-expressed with 5HT1a in HEK293
Experiment: enhancement of serotonin-evoked TRPC4 response – cell-based, second counter screen, HEK293 TRPC4/5HT1a, Fluo-4, counter-screen for TRPC4 potentiator project, confirmation (AID 434979)
Conditions: Fluo-4 calcium flux, at 10 µM, serotonin added at its EC20 dose; active compounds read high
Calls of active or inactive are those of the source.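 Rule for the calls: active = signal rise over 3 SD above mean of control wells given weak agonist, in both repeats and first screen; inactive = the rest.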
Quantity Measured: potentiation

Compound | Quantity Measured | Reading
OCCNc1nc2ccccc2n1CCN1CCCCC1 | potentiation | inactive
Cc1cc(OCC(=O)NNC(=S)NC(=O)c2ccc(Br)o2)ccc1Cl | potentiation | inactive
C=CCNC(=O)C(=O)NCC1CCCN1S(=O)(=O)c1cccs1 (configuration not stated) | potentiation | 11.2% (active)
Cc1c(C(=O)NCC(c2ccco2)N(C)C)oc2c(Cl)cccc12 (configuration not stated) | potentiation | inactive
COc1cccc(C2=NN(C(=O)c3ccco3)C(c3ccco3)C2)c1 (configuration not stated) | potentiation | inactive
CCCCCN1C2=NCCN2c2ccccc21 | potentiation | inactive
O=C(Nc1ccc(F)cc1)Nc1cc(S(=O)(=O)N2CCOCC2)ccc1N1CCCC1 | potentiation | 33% (active)
CN(Cc1cnn(C)c1)C(=O)c1ccc(OC2CCN(CCc3ccccc3)CC2)cc1 | potentiation | inactive
Cc1ccc(-n2cccn2)c(CN2CCCC(C(=O)c3ccc4c(c3)OCO4)C2)c1 (configuration not stated) | potentiation | inactive
O=C(c1cccc(C(=O)N2CCN(c3ccc(F)cc3)CC2)c1)N1CCN(c2ccc(F)cc2)CC1 | potentiation | inactive
CCn1cc(CN2CCC(n3nccc3NC(=O)CCOc3ccccc3)CC2)c(C)n1 | potentiation | inactive
CN(C)CCCSc1nc(-c2ccccc2)nc2c1CCC2 | potentiation | inactive
CCN1CCN(c2ccc(S(=O)(=O)N3CCCCC3)cc2NC(=O)c2cccc(C(F)(F)F)c2)CC1 | potentiation | 21.1% (active)
Nc1c2c(nc3ccccc13)CCC2 | potentiation | inactive
O=C(c1ccc2c(c1)OCO2)C1CCCN(Cc2cc(F)ccc2-n2cccn2)C1 (configuration not stated) | potentiation | inactive
CC(=O)c1c(O)c(C)c(O)c2c1OC1=CC(=O)C(C(C)=O)C(=O)[C@@]12C (some centres not stated) | potentiation | inactive
CCOC(=O)c1c(N)sc(C(O)(C(F)(F)F)C(F)(F)F)c1-c1ccccc1 | potentiation | inactive
Cc1cccc2cc(CN(Cc3nnnn3Cc3ccccc3)C3CCCC3)c(=O)[nH]c12 | potentiation | inactive
Cc1ccc(Cl)cc1N1CCN(C(=O)c2cccc3c(=O)c(C)c(-c4ccccc4)oc23)CC1 | potentiation | 21.8% (active)
CCOC(=O)CCSc1nc(C)cc(C(F)(F)F)c1C#N | potentiation | inactive
O=C(Nc1ccccc1)C1=C[C@H](C2CCCCC2)C[C@H](OCc2ccc(CO)cc2)O1 | potentiation | 124% (active)
COc1ccc(/C=C2/SC(=S)N(CCCC(=O)Nc3ccccc3C(=O)O)C2=O)cc1 | potentiation | inactive
